Assay: qHTS Assay for Lipid Storage Modulators in Drosophila S3 Cells
Settings: BODIPY lipid droplet fluorescence, 18-24 h, cells fed with added oleic acid; series mostly up to 46.1 µM
Out of some 320,000 compounds screened, about 2,100 (0.66%) were called active. Inconclusive results (about 53%) are left out. Calls come from the whole dose curve; as a rule, active = well fitted inhibition curve with a large enough effect in the signal ratio, with a control signal flat (not every such curve was filed as active); inconclusive = small, poorly fitted or top-dose-only effect, or effect the other way, or a change in a side signal; inactive = flat fitted curve, though single readings scatter; the % refers to the signal ratio. Only a selection was taken, and actives are over-represented in it overall.
I would appreciate it if you answered using one of these outcomes: active, inactive

Observe how each entry below is paired with its result.
{"smiles_str": "O=C(C1CCN(Cc2cccs2)CC1)N1CCN(Cc2ccc3c(c2)OCO3)CC1", "assigned_category": "inactive"}
{"smiles_str": "CC(C)(C)N(Cc1ccccc1)C(=O)COC(=O)c1ccc([N+](=O)[O-])o1", "assigned_category": "active"}
{"smiles_str": "O=c1oc(-c2cccs2)nc2sc3c(c12)CCCCC3", "assigned_category": "inactive"}
{"smiles_str": "CC(C)NC(=O)c1ccc(OC2CSC2)cc1", "assigned_category": "inactive"}
{"smiles_str": "O=C1CN(c2nc(-c3cccs3)nc3sc4c(c23)CCCC4)CCN1", "assigned_category": "active"}

IN: Please state the recorded outcome for this compound: O=c1oc(-c2cccs2)nc2sc3c(c12)CCC3
OUT: inactive

###

Assay: qHTS Assay for Lipid Storage Modulators in Drosophila S3 Cells
Conditions: BODIPY lipid droplet fluorescence, 18-24 h, cells fed with added oleic acid; series mostly up to 46.1 µM
Description: NIH Molecular Libraries Probe Production Centers Network [MLPCN] NIH Chemical Genomics Center [NCGC] […] Triacsin C (Sigma-Aldrich T-4540), an inhibitor of long-chain fatty acyl CoA synthetase that blocks synthesis of triglycerides, was used as a positive control for lipid under-storage. […] Fluorescence was detected by excitation of the fluorophores with a 488-nm laser on an Acumen Explorer (TTP Lab Tech). […] Cells were detected using channel 3 (575-640 nm) with 5-um width and 100-um depth filters. […]
The whole screen tested about 320,000 compounds, of which about 2,100 (0.66%) were called active. Inconclusive results (about 53%) are left out. Calls come from the whole dose curve; as a rule, active = well fitted inhibition curve with a large enough effect in the signal ratio, with a control signal flat (not every such curve was filed as active); inconclusive = small, poorly fitted or top-dose-only effect, or effect the other way, or a change in a side signal; inactive = flat fitted curve, though single readings scatter; the % refers to the signal ratio. What follows is part of a selection rich in actives, with near analogues and random picks from the rest.
I would appreciate it if you answered using one of these outcomes: Y = active, N = inactive

Observe how each entry below is paired with its result.
{"molecule": "CCCN=CC1=C(O)CC(c2ccccc2)CC1=O (configuration not stated)", "assigned_category": "N"}
{"molecule": "COC(=O)c1c(C)[nH]c(C(=O)/C=C/c2ccc(C)cc2)c1C", "assigned_category": "N"}
{"molecule": "CC(C)CC(NC(=O)c1ccccc1)C(=O)OCC(=O)Nc1ccc(Br)cn1 (configuration not stated)", "assigned_category": "N"}
{"molecule": "Cc1ccc(S(=O)(=O)Cc2nnnn2-c2ccccc2)cc1", "assigned_category": "N"}
{"molecule": "O=C(Nc1ccc(NC(=O)c2cccs2)cn1)c1ccccc1", "assigned_category": "N"}
{"molecule": "COc1cc2c(cc1OC)CN(C(=O)Nc1ccccc1)CC2", "assigned_category": "N"}
{"molecule": "CC12CN(C(=O)c3ccc(Cl)cc3)C3(C#N)CC1CCC23C (configuration not stated)", "assigned_category": "N"}
{"molecule": "COc1ccc(C(=O)Nc2cnc(NC(=O)c3cccs3)cc2C)cc1", "assigned_category": "N"}
{"molecule": "Cc1ccccc1S(=O)(=O)Nc1cccnc1", "assigned_category": "N"}
{"molecule": "COc1ccc(-c2csc3ncn(-c4cccc(C)c4)c(=O)c23)cc1OC", "assigned_category": "N"}

IN: Please state the recorded outcome for this molecule: Cc1ccc(N2CCN(/N=C/c3ccccc3)CC2)cc1
OUT: N

IN: Please state the recorded outcome for this molecule: O=S(=O)(Nc1cccnc1)c1ccc(Br)c2ccccc12
OUT: Y

###

This listing pairs compounds with measured cell number change.
Assay: qHTS Assay for Lipid Storage Modulators in Drosophila S3 Cells;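 for cell number change: cells counted by Cell Tracker Red CMTPX staining in the red channel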
Conditions: BODIPY lipid droplet fluorescence, 18-24 h, cells fed with added oleic acid; measured here: cell count max response
Hit rate of the full screen: of about 320,000 compounds, about 2,100 (0.66%) were called active. Not shown: some 53% with an inconclusive outcome. The sample holds actives, similar compounds and a random draw of the others, so the mix is not that of the screen.
Write the answer as a number in %, unit excluded.

{"compound": "N#Cc1cncc(-c2ccc3c(c2)OCCOCCOCCOCCOCCO3)n1", "cell number change / %": 3.78}
{"compound": "COc1ccc(C2=NC(c3ccccc3)CO2)cc1 (configuration not stated)", "cell number change / %": -8.42}
{"compound": "COc1ccc(OC)c(NC(=O)c2cc(-c3c(C)cc(C)cc3O)n[nH]2)c1", "cell number change / %": 13.7}
{"compound": "COc1cccc(NC(=O)C2CCC(CNC(=O)[C@@H]3Cc4ccccc4CN3)CC2)c1 (some centres not stated)", "cell number change / %": 0.236}
{"compound": "S=C(Nc1ccccn1)NC1CCCCC1", "cell number change / %": -4.33}

# cell number change of O=C(NCCN1CCN(C(=O)c2ccc([N+](=O)[O-])cc2)CC1)C(=O)NCc1ccccc1 = -7.25

# cell number change of CCc1ccc(N2CC(C(=O)Nc3nc4ccc(S(C)(=O)=O)cc4s3)CC2=O)cc1 (configuration not stated) = -21.1

# cell number change of CSc1nnc(C(C)c2ncc(C(F)(F)F)cc2Cl)n1C (configuration not stated) = 29.4

# cell number change of C[N+]1(CCC(=O)c2ccccc2)CCCCC1 = 3.5

# cell number change of CCOc1cc(-c2ccc3c(c2)OCO3)cc(=O)c2c(C)oc(C)c12 = -26.2

# cell number change of COC(=O)c1[nH]c2ccc(Cl)cc2c1NC(=O)C1CC1 = 1.77

# cell number change of CC(Sc1nccn1C)C(=O)c1ccc(Br)cc1 (configuration not stated) = 8.97

# cell number change of O=C(Nc1nc2ccccc2s1)C1CC(=O)N(c2ccc(Br)cc2)C1 (configuration not stated) = 1.03

###

Assay: qHTS Assay for Lipid Storage Modulators in Drosophila S3 Cells
Conditions: BODIPY lipid droplet fluorescence, 18-24 h, cells fed with added oleic acid; series mostly up to 46.1 µM
Excerpt: NIH Molecular Libraries Probe Production Centers Network [MLPCN] NIH Chemical Genomics Center [NCGC] […] Triacsin C (Sigma-Aldrich T-4540), an inhibitor of long-chain fatty acyl CoA synthetase that blocks synthesis of triglycerides, was used as a positive control for lipid under-storage. […] Fluorescence was detected by excitation of the fluorophores with a 488-nm laser on an Acumen Explorer (TTP Lab Tech). […] Cells were detected using channel 3 (575-640 nm) with 5-um width and 100-um depth filters. […]
About 2,100 (0.66%) of roughly 320,000 compounds were called active. Not shown: some 53% with an inconclusive outcome. The call rests on the fitted dose curve; in most records, active means well fitted inhibition curve with a large enough effect in the signal ratio, with a control signal flat (not every such curve was filed as active); inconclusive means small, poorly fitted or top-dose-only effect, or effect the other way, or a change in a side signal; inactive means flat fitted curve, though single readings scatter; the % refers to the signal ratio. The sample holds actives, similar compounds and a random draw of the others, so the mix is not that of the screen.
I would appreciate it if you answered using one of these outcomes: true (active), false (inactive)

Observe how each entry below is paired with its result.
{"compound": "O=C(Nc1ccc(F)cc1)C1CCCN(S(=O)(=O)c2ccc3[nH]c(=O)ccc3c2)C1 (stereo not given)", "assigned_category": "false"}
{"compound": "Cc1c(C(=O)O)sc2nc(CSc3ncc(C(F)(F)F)cc3Cl)[nH]c(=O)c12", "assigned_category": "false"}
{"compound": "NC(=O)COc1c(-c2ccccc2)oc2ccccc2c1=O", "assigned_category": "false"}
{"compound": "COc1ccc(C(=O)NCCOc2cccc(OC)c2)cc1", "assigned_category": "false"}
{"compound": "Cc1onc(-c2ccccc2Cl)c1C(=O)Oc1cc(N)n(S(=O)(=O)c2ccc(F)cc2)n1", "assigned_category": "false"}

IN: Please state the recorded outcome for this compound: O=C(CCN1C(=O)/C(=C\c2ccco2)SC1=S)Nc1ccc(C(=O)O)c(O)c1
OUT: false

IN: Please state the recorded outcome for this compound: CCOC(=O)C1CCN(C(=O)CSc2c3c(nc4ccccc24)CCC3)CC1
OUT: false

IN: Please state the recorded outcome for this compound: O=C(CN1C(=O)/C(=C/c2ccco2)SC1=S)Nc1ccc(C(=O)O)c(O)c1
OUT: true

IN: Please state the recorded outcome for this compound: CCc1cccc(NC(=O)C2CCCN(S(=O)(=O)c3ccc4[nH]c(=O)ccc4c3)C2)c1 (stereo not given)
OUT: false

IN: Please state the recorded outcome for this compound: O=C(O)COc1c(-c2ccc(Cl)cc2)oc2ccccc2c1=O
OUT: false

###

Assay: qHTS Assay for Lipid Storage Modulators in Drosophila S3 Cells; note: potency is the fitted concentration of half-maximal effect
Conditions: BODIPY lipid droplet fluorescence, 18-24 h, cells fed with added oleic acid; series mostly up to 46.1 µM
The whole screen tested about 320,000 compounds, of which about 2,100 (0.66%) were called active. About 53% were inconclusive and are not listed. For the sample, actives were picked, then their nearest neighbours and some compounds at random.
readout_label: Potency

As a guide, the following entries are already answered.
{"molecule": "Oc1cccc(CCC2CCCCN2Cc2cn[nH]c2-c2ccc3c(c2)OCO3)c1 (stereo unspecified)", "data_value": "inactive"}
{"molecule": "COC(=O)Cc1c(C)nc2nc(NCc3cccc([N+](=O)[O-])c3)[nH]n2c1=O", "data_value": "inactive"}
{"molecule": "Cc1ccc2nc3sc(-c4nnc(-c5ccccc5[N+](=O)[O-])o4)c(N)c3cc2c1", "data_value": "inactive"}
{"molecule": "c1ccc(-c2nnc(-c3ccccc3)o2)cc1", "data_value": "inactive"}
{"molecule": "Cc1ccc(S(=O)(=O)Nc2ccc3nc(C)sc3c2)c(C)c1", "data_value": "10.3 µM (active)"}

Note: attention shifts to another entry.
# Potency of Nc1ccc(-c2nnc(-c3ccccc3)o2)cc1 = 18.4 µM (active)

Value source: PubChem BioAssay AID2685
